Reference source for all entries: paper PMC3119707

tgt: 110 kinases
assay.name: In vitro kinase profiling panel
measurement.setup: 101 out of the 110 kinases tested
quantity.measured: IC50

1) COc1cc2ncnc(Nc3cccc(Cl)c3)c2cc1OC    > 1000 nM
